The following are reported Ki results, target or system Falcipain 2 (Plasmodium falciparum).
PROPERTY NAME: Ki (nM)

{"columns": ["COMPOUND", "PROPERTY NAME", "MEASURED NUMBER"],
 "data": [
  ["COc1cccc2cc(C(=O)N[C@@H](CC(C)C)C(=O)N[C@@H]3CCCN(S(=O)(=O)c4cccs4)CC3=O)oc12", "Ki", 6.2],
  ["CC(C)C[C@@H](NC(=O)c1ccc(-c2cccc(C(F)(F)F)c2)o1)C(=O)N[C@@H]1CCCN(S(=O)(=O)c2cccc[n+]2[O-])CC1=O", "Ki", 8.1],
  ["COc1ccc2oc(C(=O)N[C@@H](CC(C)C)C(=O)N[C@H]3CCCN(S(=O)(=O)c4nccs4)CC3=O)cc2c1", "Ki", 4.9],
  ["O=C(N[C@@H](CC1CCCCC1)C(=O)N[C@H]1CCCN(S(=O)(=O)c2cccc[n+]2[O-])CC1=O)c1ccc(-c2cccc(C(F)(F)F)c2)o1", "Ki", 43],
  ["CC(C)C[C@@H](NC(=O)c1cc2cc(OCCN3CCOCC3)ccc2o1)C(=O)N[C@@H]1CCCN(C(=O)Nc2ccccc2)CC1=O", "Ki", 34],
  ["COc1ccc(S(=O)(=O)N2CCC[C@@H](NC(=O)[C@H](CC(C)C)NC(=O)c3ccc(OC)c(OC)c3)C(=O)C2)cc1", "Ki", 5.9],
  ["CC(C)C[C@@H](NC(=O)c1cnc2ccccc2c1)C(=O)N[C@@H]1CCCN(S(=O)(=O)c2ccccn2)CC1=O (single isomer, unassigned)", "Ki", 6.2],
  ["CC(C)C[C@@H](NC(=O)c1ccc2[nH]ccc2c1)C(=O)N[C@@H]1CCCN(S(=O)(=O)c2cccc[n+]2[O-])CC1=O", "Ki", 7.8]
]}
